# assay_target: T1, 4H349-bA
# T1 chain: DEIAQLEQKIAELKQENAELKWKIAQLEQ
# measurement_description: two-hybrid library CCNG1;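 note: natural log of median RNA to DNA barcode read ratio; higher means stronger binding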
endpoint: interaction score

* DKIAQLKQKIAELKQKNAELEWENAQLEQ [4H2931-bA] | -1.08
* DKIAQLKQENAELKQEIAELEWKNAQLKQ [4H2760-bA] | -0.95
* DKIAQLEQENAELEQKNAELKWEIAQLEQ [4H2233-bA] | -1.43
* DKIAQLKQKIAELEQKIAELKWENAQLEQ [4H2859-bA] | -1.25
* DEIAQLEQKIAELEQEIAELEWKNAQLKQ [4H264-bA] | -0.396
* DEIAQLEQKIAELKQENAELKWKIAQLEQ [4H349-bA] | 0.649
* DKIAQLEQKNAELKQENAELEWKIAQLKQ [4H2518-bA] | -0.372
* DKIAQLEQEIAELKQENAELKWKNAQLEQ [4H2143-bA] | -0.729
* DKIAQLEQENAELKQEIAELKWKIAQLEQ [4H2253-bA] | -0.459
* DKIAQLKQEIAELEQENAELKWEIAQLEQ [4H2585-bA] | 1.13
* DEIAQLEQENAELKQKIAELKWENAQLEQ [4H235-bA] | -0.682
* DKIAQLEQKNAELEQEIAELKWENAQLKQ [4H2444-bA] | -0.457
* DKIAQLKQKNAELKQKIAELEWEIAQLEQ [4H3041-bA] | -1.44
* DKNAQLEQENAELKQKIAELEWEIAQLEQ [4H3297-bA] | -1.15
